Provenance of the data: paper PMC5540273

test system: MEK1; construct: gene MAP2K1; details: concentration: 1 μM, replicates: in singlicate; n = 1;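 note: KINOMEscan kinase panel screen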
Assignment: determine reported %Inh for the given compounds.
Expressed in %, but write only the number.

Which %Inh reading was recorded for the compound CN1CCN(CCCNc2nccc(-c3c(-c4ccc(F)cc4)nn4cc(C(F)(F)F)ccc34)n2)CC1 ?
0

Also need O=C(Nc1cccc(Oc2ccc3nc(NC(=O)C4CC4)cn3n2)c1)c1ccccc1C(F)(F)F , thanks.
69

Also need O=C(Nc1cccc(-c2nn3ccccc3c2-c2ccnc(Nc3cccc(F)c3)n2)c1)c1c(F)ccc(F)c1Cl , thanks.
0

Also need Cc1ccc(F)c(C(=O)Nc2cccc(-c3nn4ccccc4c3-c3ccnc(Nc4cccc(F)c4)n3)c2)c1F , thanks.
3

Also need C[C@@H]1CC[C@@H](C(=O)Nc2ccccc2)CN1c1cc(-c2ccc3c(N)n[nH]c3c2)nc(N)n1 , thanks.
15

Also need CC(=O)N1CCN(c2ccc(Nc3nccc(-c4sc(C(C)C)nc4-c4cccc(NS(=O)(=O)c5cccc(Cl)c5)c4)n3)cn2)CC1 , thanks.
1

Also need O=C(Nc1cccc(-c2nn3ccccc3c2-c2ccnc(Nc3cccc(C(F)(F)F)c3)n2)c1)c1c(F)cccc1F , thanks.
3

* * *

Assignment: determine reported %Inh for the given compounds.
system: NLK; conditions: concentration: 1 μM, replicates: in singlicate; n = 1
Expressed in %, but write only the number.

Which %Inh reading was recorded for the compound O=C(O)C(F)(F)F.O=C(O)C(F)(F)F.O=c1[nH]ccc2nc(N[C@@H]3CCCNC3)nc(Nc3ccc(S(=O)(=O)N4CCOCC4)cc3)c12 ?
0

Also need CC(=O)N1CCN(c2ccc(Nc3nccc(-c4sc(C(C)C)nc4-c4cccc(NS(=O)(=O)c5cccc(Cl)c5)c4)n3)cn2)CC1 , thanks.
91.8

Also need O=C(NC1CCN(c2ccnc(Nc3ccc(F)cc3)n2)C1)c1cc2ccccc2s1 (stereo not drawn) , thanks.
31

Also need COc1ccc(Nc2nccc(N3CCC(NC(=O)Nc4cccc(OC)c4)C3)n2)cc1 (stereo not drawn) , thanks.
0

Also need COc1cccc(-c2ccc3c(NC(=O)C4CC4)n[nH]c3n2)c1 , thanks.
49

Also need Cc1cccc(Nc2nc(N[C@H]3CCNC3)ncc2C(N)=O)c1.Cl , thanks.
0

Also need Cl.NC(=O)c1cccc(Nc2nccc(Nc3ccc(Oc4c(Cl)cccc4Cl)c(Cl)c3)n2)c1 , thanks.
0

Also need Cc1occc1-c1ncc(OC[C@@H](N)Cc2c[nH]c3ccccc23)cc1-c1ccc2[nH]nc(C)c2c1.O=C(O)C(F)(F)F , thanks.
39

Also need COc1cc(Nc2nccc(-c3c(-c4cccc(NC(=O)c5c(F)cccc5F)c4)nn4ccccc34)n2)cc(OC)c1OC , thanks.
0

Also need Cn1cc(-c2ccc3c(c2)CCN3C(=O)Cc2cccc(F)c2)c2c(N)ncnc21 , thanks.
0

Also need COc1cc(Nc2nccc(-c3c(-c4cccc(NC(=O)c5c(F)cccc5F)c4)nn4ncccc34)n2)cc(OC)c1OC , thanks.
82

Also need COc1cccc(C(=O)Nc2cccc(Oc3ccc4nc(NC(=O)C5CC5)cn4n3)c2)c1 , thanks.
0

Also need CN(C)S(=O)(=O)c1cc(-c2ccc3nccc(-c4cccc(S(N)(=O)=O)c4)c3c2)cnc1N , thanks.
4

Also need CN(c1ccc(NC(=O)Nc2cc(C(F)(F)F)ccc2F)cc1)c1ccnc(Nc2ccc(S(N)(=O)=O)cc2)n1 , thanks.
78

Also need COc1ccc(CNC(=O)NC2CCN(c3ccnc(Nc4ccc(F)cc4)n3)CC2)cc1 , thanks.
0
